The origin of these recorded values is patent US20250034170A1.

- TARGET_OR_TEST_SYSTEM: GCase (Homo sapiens, UniProt P04062)
- Construct: endogenous in cells; host or cells: HeLa cells
- Sequence (P04062 40-536): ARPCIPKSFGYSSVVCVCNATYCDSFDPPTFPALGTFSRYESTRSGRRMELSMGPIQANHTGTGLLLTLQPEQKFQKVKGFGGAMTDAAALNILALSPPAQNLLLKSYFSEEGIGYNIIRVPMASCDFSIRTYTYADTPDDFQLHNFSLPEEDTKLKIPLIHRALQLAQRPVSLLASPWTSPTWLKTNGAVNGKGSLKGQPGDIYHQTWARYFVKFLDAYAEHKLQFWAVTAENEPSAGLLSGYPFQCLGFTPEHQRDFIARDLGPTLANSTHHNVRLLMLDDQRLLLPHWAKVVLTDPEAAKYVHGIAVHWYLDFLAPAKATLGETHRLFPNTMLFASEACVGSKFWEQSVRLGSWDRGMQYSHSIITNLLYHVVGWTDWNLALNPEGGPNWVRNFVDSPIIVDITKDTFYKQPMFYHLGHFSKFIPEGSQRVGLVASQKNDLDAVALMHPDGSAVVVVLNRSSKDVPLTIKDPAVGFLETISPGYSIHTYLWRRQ
- TEST_DESCRIPTION: activation of GCase in a live cell PFB assay in HELA cells
- Type: cell-based
- RUN_CONDITIONS: EC50 given as range classes
MEASUREMENT_KIND: EC50

Previously resolved entries follow.
**Query** Recall and state the measured EC50 for FC(F)Cn1ncc2ncc(N3CCC4(CN(c5ccc(Cl)cn5)C4)C3)nc21 .
**Result** 10 to 50 µM

**Query** Recall and state the measured EC50 for FC(F)Cn1ncc2ncc(N3CC4(CCN(c5ccnc(C(F)(F)F)c5)C4)C3)nc21 .
**Result** 10 to 50 µM

**Query** Recall and state the measured EC50 for Cn1c(N2CCC3(CCN(c4cnc(C(F)(F)F)nc4)C3)CC2)nc2c(cnn2CC(F)F)c1=O .
**Result** 10 to 50 µM

**Query** Recall and state the measured EC50 for Cc1nn(CC(F)F)c2nc(N3CCC4(CCN(c5ccc(C(F)(F)F)nc5)C4)CC3)ncc12 .
**Result** < 10 µM

Next:
**Query** Recall and state the measured EC50 for Cc1nc(N2CC3(CCN(c4cc5c(cn4)c(C)nn5CC(F)F)C3)C2)cc(C(F)(F)F)n1 .
**Result** 50 to 100 µM

**Query** Recall and state the measured EC50 for Cn1c(N2CCC3(CN(c4ccc(C(F)(F)F)cn4)C3)C2)nc2c(cnn2CC(F)F)c1=O .
**Result** 10 to 50 µM

**Query** Recall and state the measured EC50 for Cc1nn(CC(F)F)c2nc(N3CCC4(CN(c5ccnc(C(F)(F)F)c5)C4)C3)n(C)c(=O)c12 .
**Result** < 10 µM

**Query** Recall and state the measured EC50 for FC(F)Cn1ncc2ncc(N3CCC4(CCN(c5cncc(C(F)(F)F)n5)CC4)CC3)nc21 .
**Result** < 10 µM

**Query** Recall and state the measured EC50 for Cc1nc(N2CC3(CCN(c4ccc5c(C)nn(CC(F)F)c5n4)CC3)C2)cc(C(F)(F)F)n1 .
**Result** < 10 µM

**Query** Recall and state the measured EC50 for FC(F)Cn1ncc2ncc(N3CCCC4(CCN(c5cccc(C(F)(F)F)n5)CC4)C3)nc21 .
**Result** 10 to 50 µM

**Query** Recall and state the measured EC50 for Cc1nc(N2CCC3(CCN(c4cnc5c(C)nn(CC(F)(F)F)c5n4)CC3)C2)cc(C(F)(F)F)n1 .
**Result** > 100 µM

**Query** Recall and state the measured EC50 for FC(F)Cn1ncc2ncc(NC3COC4(C3)CN(c3cc(C(F)(F)F)ccn3)C4)nc21 (stereo not drawn) .
**Result** < 10 µM

**Query** Recall and state the measured EC50 for Cc1nn(C2COC2)c2nc(N3CC4(CC3=O)CN(c3ccnc(C(F)(F)F)c3)C4)ncc12 .
**Result** 10 to 50 µM

**Query** Recall and state the measured EC50 for Cc1nc(N2CCC3(CCN(c4ncc5c(C)nn(CC(F)(F)F)c5n4)C3)C2)cc(C(F)(F)F)n1 (stereo not drawn) .
**Result** 10 to 50 µM

**Query** Recall and state the measured EC50 for O=C1N(c2cnc(C(F)(F)F)nc2)C(=O)C2(CCN(c3cnc4cnn(CC(F)F)c4n3)CC2)N1Cc1cc(F)cc(F)c1 .
**Result** < 10 µM

**Query** Recall and state the measured EC50 for O=C1N(c2ncc3cnn(CC(F)F)c3n2)CCC12CN(c1ccnc(C(F)(F)F)c1)C2 .
**Result** 10 to 50 µM

**Query** Recall and state the measured EC50 for Cc1nn(CC(F)F)c2nc(N3CCC4(CC3)CC(=O)N(c3ccc(C(F)(F)F)nc3)C4)ncc12 .
**Result** < 10 µM

**Query** Recall and state the measured EC50 for FC(F)Cn1ncc2ncc(N3CC4(CCN(c5cc(C(F)(F)F)ccn5)C4)C3)nc21 .
**Result** 10 to 50 µM
